Test system: Wheat and Barley and test plant species
assaySummary: Post-emergent Test III, herbicidal activity in wheat and barley (Table 17; visual injury, GR20/GR50/GR80/GR90)
Assay type: in vivo
details: PAPRH; 35 g ai/ha; post-emergent; 21 d
measurementKind: Visual Growth Reduction (%) 21 Days After Application, PAPRH

molecule: COC(=O)c1nc(-c2ccc3cc[nH]c3c2F)cc(N)c1Cl [Compound 1.23]
measuredOn: Wheat and Barley and test plant species
recordedMeasurement: A (95-100)

molecule: COC(=O)c1nc(-c2ccc3cc[nH]c3c2F)c(F)c(N)c1Cl [Compound 1.15]
measuredOn: Wheat and Barley and test plant species
recordedMeasurement: A (95-100)

molecule: Nc1c(F)c(-c2ccc3cc[nH]c3c2F)nc(C(=O)O)c1Cl [Compound 1.16]
measuredOn: Wheat and Barley and test plant species
recordedMeasurement: A (95-100)

###

System: Key Grass and Sedge Weeds as well as Grass Crops
assaySummary: Post-emergent Test II herbicidal activity (Table 16)
Format: in vivo
details: Triticum aestivum, post-emergence, 336 h, wheat, spring (Triticum aestivum), 140 g ai/ha, 14 d, read-out: Visual Growth Reduction (%) 14 Days After Application, TRZAS
Could you please report measured pest or weed control at 140 g/ha for the items listed next?

// worked examples, pest or weed control at 140 g/ha included
molecule: COC(=O)c1nc(-c2ccc3occc3c2)cc(N)c1Cl [Compound 2.03]
recordedMeasurement: 0 to 29%
--
molecule: COC(=O)c1nc(-c2ccc3cc[nH]c3c2F)c(Cl)c(N)c1Cl [Compound 1.07]
recordedMeasurement: 0 to 29%
--
molecule: Nc1cc(-c2cc3[nH]ccc3cc2F)nc(C(=O)O)c1Cl [Compound 1.26]
recordedMeasurement: 0 to 29%
--
molecule: COc1c(N)nc(-c2ccc3cc[nH]c3c2F)nc1C(=O)O [Compound 1.35]
recordedMeasurement: 45 to 59%
--
molecule: COC(=O)c1nc(-c2ccc(Cl)c3ccoc23)cc(N)c1Cl [Compound 2.25]
recordedMeasurement: 0 to 29%

Look up pest or weed control at 140 g/ha for the entries below, preserving their order.
1. COC(=O)c1nc(-c2ccc3cc[nH]c3c2)c(Cl)c(N)c1Cl [Compound 1.05]
2. Nc1c(F)c(-c2ccc(Cl)c3occc23)nc(C(=O)O)c1Cl [Compound 2.18]
3. COC(=O)c1nc(-c2ccc(Cl)c3[nH]ccc23)cc(N)c1Cl [Compound 1.44]
4. COC(=O)c1nc(-c2ccc3cc[nH]c3c2F)nc(N)c1Cl [Compound 1.31]
5. COC(=O)c1nc(-c2ccc(Cl)c3ccoc23)nc(N)c1OC [Compound 2.26]

1. 45 to 59%
2. 0 to 29%
3. 0 to 29%
4. 30 to 44%
5. 0 to 29%

###

Kindly state melting point for each of the entries shown.

compound: COC(=O)c1nc(-c2ccc3sccc3c2)c(F)c(N)c1Cl [Compound 3.03]
melting point: 84 to 85 °C
//
compound: COC(=O)c1nc(-c2ccc3ccoc3c2F)c(F)c(N)c1Cl [Compound 2.09]
melting point: 151 °C
//
compound: COC(=O)c1nc(-c2ccc3cnn(C)c3c2)c(F)c(N)c1Cl [Compound 4.07]
melting point: 187 to 190 °C

Parameters: items (list). Returns: melting point for each item.
1. COC(=O)c1nc(-c2ccc(Cl)c3ccoc23)nc(N)c1OC [Compound 2.26]
2. COC(=O)c1nc(-c2c(F)cc3cc[nH]c3c2F)cc(N)c1Cl [Compound 1.27]
3. COC(=O)c1nc(-c2ccc3nc[nH]c3c2)c(F)c(N)c1Cl [Compound 7.01]
4. COC(=O)c1nc(-c2ccc3cc[nH]c3c2)nc(N)c1Cl [Compound 1.30]
5. COC(=O)c1nc(-c2cc3occc3cc2F)nc(N)c1OC [Compound 2.14]
6. COC(=O)c1nc(-c2ccc3cc[nH]c3c2)c(Cl)c(N)c1Cl [Compound 1.05]

["178 °C", "169 to 171 °C", "219 to 221 °C", "240 to 242 °C", "153 °C", "174 to 179 °C"]
